# EXPERIMENTAL TARGET: DNA topoisomerase 1 (Homo sapiens) (UniProt P11387)
# Sequence (whole entry): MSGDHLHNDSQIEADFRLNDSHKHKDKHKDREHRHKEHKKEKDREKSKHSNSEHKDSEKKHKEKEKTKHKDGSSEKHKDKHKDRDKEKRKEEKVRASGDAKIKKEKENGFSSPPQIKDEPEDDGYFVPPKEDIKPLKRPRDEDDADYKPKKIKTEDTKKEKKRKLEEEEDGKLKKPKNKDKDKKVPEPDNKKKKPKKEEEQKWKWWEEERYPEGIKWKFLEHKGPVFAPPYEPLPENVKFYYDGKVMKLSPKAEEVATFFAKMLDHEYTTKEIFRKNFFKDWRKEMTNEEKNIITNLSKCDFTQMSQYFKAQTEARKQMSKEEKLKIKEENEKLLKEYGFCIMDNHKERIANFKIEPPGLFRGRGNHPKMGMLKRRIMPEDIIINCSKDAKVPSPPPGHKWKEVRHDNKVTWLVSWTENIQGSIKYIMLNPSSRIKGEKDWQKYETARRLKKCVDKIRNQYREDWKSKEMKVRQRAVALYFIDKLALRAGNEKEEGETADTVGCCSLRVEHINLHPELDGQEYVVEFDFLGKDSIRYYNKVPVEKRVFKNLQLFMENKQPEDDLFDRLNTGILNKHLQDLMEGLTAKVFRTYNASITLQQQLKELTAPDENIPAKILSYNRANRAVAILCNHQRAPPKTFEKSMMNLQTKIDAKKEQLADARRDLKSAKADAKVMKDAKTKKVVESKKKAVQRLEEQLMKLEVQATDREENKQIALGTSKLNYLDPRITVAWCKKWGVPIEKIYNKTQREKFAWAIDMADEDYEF
# TEST NAME: Inhibition of human topoisomerase 1-mediated DNA relaxation activity at 5 uM after 10 mins relative to control
MEASURED PARAMETER: inhibition (%)

Field: example entries. Status: answers known.
1) CC(CN(C)C)Oc1ccc2c3c(oc2c1)C(=O)c1ncccc1C3=O (stereo unspecified) = 0
2) CCN(CC)CCOc1cc2oc3c(c2cc1Cl)C(=O)c1cccnc1C3=O = 0
3) CC(C)N(CCOc1cc2oc3c(c2cc1Cl)C(=O)c1cccnc1C3=O)C(C)C = 0

A = CC(COc1cc2oc3c(c2cc1Cl)C(=O)c1cccnc1C3=O)N(C)C (stereo unspecified)
B = CC(CN(C)C)Oc1cc2oc3c(c2cc1Cl)C(=O)c1ccccc1C3=O (stereo unspecified)
C = CCN(CC)CCOc1ccc2c3c(oc2c1)C(=O)c1ccccc1C3=O
IN: Falling order of inhibition, please. List each label, following the requested order.
OUT: C, B, A
(C: 12%, B: 6%, A: 0%)
